Measured PBM binding z-score accompanies every entry in the list below.
# Tested on: RARb homodimer (NR concentration 270 nM)
# METHOD_NOTES: PBM binding z-score (relative to random genomic background probes); higher = stronger binding; sequences stand for … in GC…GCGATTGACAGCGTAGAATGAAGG
OBSERVED_PROPERTY: PBM binding z-score

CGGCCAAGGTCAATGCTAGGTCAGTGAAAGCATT ... 4.9
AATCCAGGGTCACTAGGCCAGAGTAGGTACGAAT ... 3.4
TGAAAGAGGTTATAAGATCAGGGAACGTTGCAAA ... 0.261
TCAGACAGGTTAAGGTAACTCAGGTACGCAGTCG ... 1.33
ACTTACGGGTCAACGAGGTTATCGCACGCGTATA ... 3.52
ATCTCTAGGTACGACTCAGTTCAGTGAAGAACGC ... 0.848
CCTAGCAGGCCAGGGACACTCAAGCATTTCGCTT ... 0.112
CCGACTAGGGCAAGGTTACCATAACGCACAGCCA ... 1.42
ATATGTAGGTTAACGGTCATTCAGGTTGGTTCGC ... 2.72
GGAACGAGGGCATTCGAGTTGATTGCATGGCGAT ... 0.671
GATACAGGGTCAGCTAGAGGCCTGAGTATGGAAA ... 2.73
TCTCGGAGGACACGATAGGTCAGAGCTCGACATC ... 3.02
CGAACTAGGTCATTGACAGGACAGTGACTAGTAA ... 2.75
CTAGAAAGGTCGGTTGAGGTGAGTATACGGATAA ... 2.53
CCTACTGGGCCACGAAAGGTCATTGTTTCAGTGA ... 4.64
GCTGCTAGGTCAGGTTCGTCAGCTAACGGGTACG ... 2.25
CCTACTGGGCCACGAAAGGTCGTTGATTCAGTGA ... 2.27
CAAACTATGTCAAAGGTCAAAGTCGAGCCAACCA ... 5.04
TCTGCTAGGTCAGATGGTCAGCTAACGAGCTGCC ... 2.5
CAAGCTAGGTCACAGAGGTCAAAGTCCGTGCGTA ... 5.82
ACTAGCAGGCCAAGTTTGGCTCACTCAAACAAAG ... -0.243
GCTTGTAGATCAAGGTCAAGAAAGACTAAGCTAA ... 3.18
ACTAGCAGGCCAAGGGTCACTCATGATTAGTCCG ... 3.68
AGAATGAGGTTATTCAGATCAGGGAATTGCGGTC ... 0.905
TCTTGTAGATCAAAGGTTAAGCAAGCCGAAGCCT ... 1.9
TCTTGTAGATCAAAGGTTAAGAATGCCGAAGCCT ... 1.48
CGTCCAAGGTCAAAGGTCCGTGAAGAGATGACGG ... 3.99
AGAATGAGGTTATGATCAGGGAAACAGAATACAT ... 0.715
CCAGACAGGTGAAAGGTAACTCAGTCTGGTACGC ... 0.781
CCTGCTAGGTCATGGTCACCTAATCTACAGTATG ... 3.43
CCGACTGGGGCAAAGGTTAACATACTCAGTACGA ... 2.4
CCTTACGGGTCACGAGGTTATAGCGCGACGAGCG ... 3.63
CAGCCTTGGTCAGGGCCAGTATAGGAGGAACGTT ... 0.149
CGTCAAAGTCCAACTAAGGTAACGTAAAGCACGC ... 1.43
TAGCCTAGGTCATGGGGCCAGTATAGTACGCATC ... 3.29
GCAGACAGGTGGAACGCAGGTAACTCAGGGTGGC ... -0.721
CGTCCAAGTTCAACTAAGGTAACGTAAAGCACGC ... 2.73
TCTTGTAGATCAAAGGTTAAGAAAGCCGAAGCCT ... 1.36
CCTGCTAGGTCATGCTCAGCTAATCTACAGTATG ... 2.76
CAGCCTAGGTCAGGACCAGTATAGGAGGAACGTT ... 1.97
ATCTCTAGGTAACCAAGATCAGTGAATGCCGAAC ... -0.128
CAAACTAGGTCAAGAGGTCAAAGTGCGCTTCCCG ... 5.69
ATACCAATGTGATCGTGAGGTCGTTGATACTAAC ... 0.979
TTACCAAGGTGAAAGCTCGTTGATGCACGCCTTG ... 0.13
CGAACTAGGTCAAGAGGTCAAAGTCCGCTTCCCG ... 5.66
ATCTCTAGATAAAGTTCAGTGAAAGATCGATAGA ... 1.84
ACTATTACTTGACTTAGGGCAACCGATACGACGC ... 1.06
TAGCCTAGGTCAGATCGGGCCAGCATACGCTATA ... 2.06
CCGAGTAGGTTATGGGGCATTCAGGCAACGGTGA ... 1.08
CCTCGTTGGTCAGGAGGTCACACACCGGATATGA ... 4.36
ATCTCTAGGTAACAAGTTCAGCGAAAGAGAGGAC ... 2.17

###

# Tested on: THRa homodimer (NR concentration 90 nM)
# METHOD_NOTES: PBM binding z-score (relative to random genomic background probes); higher = stronger binding; sequences stand for … in GC…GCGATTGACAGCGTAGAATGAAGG
Below, each of the sequences is paired with its reported PBM binding z-score value.
OBSERVED_PROPERTY: PBM binding z-score

TGAATGAGGTTATAAGACCAGGGAACGTTGCAAA ... -0.0902
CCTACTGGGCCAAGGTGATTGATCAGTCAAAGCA ... -0.015
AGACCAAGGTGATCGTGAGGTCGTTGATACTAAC ... 2.04
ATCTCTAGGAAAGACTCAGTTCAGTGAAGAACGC ... 0.155
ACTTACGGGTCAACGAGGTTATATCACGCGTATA ... 1.45
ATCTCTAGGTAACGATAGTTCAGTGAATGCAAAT ... 0.354
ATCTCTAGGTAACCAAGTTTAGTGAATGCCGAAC ... 0.672
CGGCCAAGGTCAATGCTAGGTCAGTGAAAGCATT ... 2.46
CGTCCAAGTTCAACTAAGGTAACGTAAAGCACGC ... 2.45
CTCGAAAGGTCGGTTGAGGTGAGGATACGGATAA ... 2.21
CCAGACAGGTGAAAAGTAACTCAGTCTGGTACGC ... -0.599
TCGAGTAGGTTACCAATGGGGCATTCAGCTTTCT ... -0.612

###

Reported PBM binding z-score values for the following sequences.
# Tested on: VDR homodimer (NR concentration 270 nM)
# METHOD_NOTES: PBM binding z-score (relative to random genomic background probes); higher = stronger binding; sequences stand for … in GC…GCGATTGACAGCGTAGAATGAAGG
OBSERVED_PROPERTY: PBM binding z-score

ATCTCTAGGTAAAACTTCAGTGAATCCCGAGGAT ... -0.455
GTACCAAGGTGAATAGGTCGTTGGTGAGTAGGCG ... 0.359
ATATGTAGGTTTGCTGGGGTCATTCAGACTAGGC ... 5.58
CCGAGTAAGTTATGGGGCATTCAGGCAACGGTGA ... -0.0157
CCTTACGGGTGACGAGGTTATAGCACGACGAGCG ... 0.36
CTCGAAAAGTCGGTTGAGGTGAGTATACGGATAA ... -0.144

###

# Tested on: RXRa homodimer (NR concentration 180 nM)
# METHOD_NOTES: PBM binding z-score (relative to random genomic background probes); higher = stronger binding; sequences stand for … in GC…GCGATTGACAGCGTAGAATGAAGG
param class (str): category from PBM binding z-score; see ranges LOW: < 0.6; MEDIUM: ≥ 0.6 and < 3; HIGH: ≥ 3

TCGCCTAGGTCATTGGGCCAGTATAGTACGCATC ... MEDIUM
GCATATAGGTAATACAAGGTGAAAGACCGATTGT ... MEDIUM
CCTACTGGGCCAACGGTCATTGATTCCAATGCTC ... LOW
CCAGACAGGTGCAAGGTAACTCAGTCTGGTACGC ... LOW
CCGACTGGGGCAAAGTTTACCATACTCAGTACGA ... MEDIUM
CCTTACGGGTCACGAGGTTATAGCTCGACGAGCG ... HIGH
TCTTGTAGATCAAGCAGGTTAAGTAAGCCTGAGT ... LOW
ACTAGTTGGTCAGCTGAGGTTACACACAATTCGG ... MEDIUM
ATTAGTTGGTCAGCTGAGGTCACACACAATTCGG ... HIGH
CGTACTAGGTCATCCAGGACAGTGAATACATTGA ... MEDIUM
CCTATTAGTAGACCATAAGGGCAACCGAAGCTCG ... MEDIUM
